# credit: patent US10597388B2

Tested on: blackgrass (Alopecurus myosuroides)
Experiment: Test C greenhouse herbicide test, pre- and postemergence
Format: in vivo
Details: Preemergence, 62 g ai/ha; scale 0 to 100, 0 is no effect, 100 is complete control
Excerpt: […]
assayEndpoint: Plant response rating, Blackgrass

Use these answered entries as a reference point.
1. Cc1nn(C)c(=O)c(-c2c(C)sc3ccc(Cl)cc23)c1O [Compound 104] ... 15
2. CC(=O)Oc1c(C)nn(C)c(=O)c1-c1c(C)cc(C)c2ccccc12 [Compound 153] ... 90
3. CC(=O)Oc1c(C)nn(C)c(=O)c1-c1c(C)sc2c(C)cc(C)cc12 [Compound 27] ... 90
4. CCOC(=O)Oc1c(C)nn(C)c(=O)c1-c1c(C)sc2ccc(C)cc12 [Compound 82] ... 60

The reported value for COc1nn(C)c(=O)c(-c2c(C)ccc3ccccc23)c1OC(C)=O [Compound 138] in terms of Plant response rating, Blackgrass is 55

###

Tested on: field bindweed (Convolvulus arvensis)
Experiment: Test E greenhouse herbicide test, pre- and postemergence
Format: in vivo
Details: 125 g ai/ha, Preemergence; scale 0 to 100 (0 no effect, 100 complete control)
Source text: […]
assayEndpoint: Plant response rating, Field Bindweed
Answers are plain numbers.

Use these answered entries as a reference point.
1) CCC(=O)Oc1c(C)nn(C)c(=O)c1-c1c(C)sc2ccc(Cl)cc12 ... 80
2) CCOC(=O)Oc1c(C)nn(C)c(=O)c1-c1c(C)sc2c(C)cc(C)cc12 ... 35

// batch mode: one Plant response rating, Field Bindweed value per listed entry
1. COC(=O)Oc1c(C)nn(C)c(=O)c1-c1c(C)sc2c(C)cc(C)cc12
2. C#CCOC(=O)Oc1c(C)nn(C)c(=O)c1-c1c(C)sc2ccc(C)cc12

## Output
1. 75
2. 95

###

Test system: morningglory (Ipomoea coccinea)
Assay: Test C greenhouse herbicide test, pre- and postemergence
Format: in vivo
Conditions: Preemergence, 250 g ai/ha; scale 0 to 100 (0 no effect, 100 complete control)
I'd appreciate it if you could supply Morningglory plant response rating values for the items below.
Answers are plain numbers.

1. Cc1ccc2sc(C)c(-c3c(O)c(C)nn(C)c3=O)c2c1 ... 100
2. CC(=O)Oc1c(C)nn(C)c(=O)c1-c1c(C)sc2c(C)cc(C)cc12 ... 100

The reported value for `CCC(=O)Oc1c(C)nn(C)c(=O)c1-c1c(C)sc2ccc(Cl)cc12` in terms of Morningglory plant response rating is 98

###

Test system: wheat, winter (winter wheat, Triticum aestivum)
Test: Test D controlled growth environment herbicide test, pre- and postemergence
Type: in vivo
Settings: Postemergence, 125 g ai/ha; visual rating on scale 0 (no effect) to 100 (complete control), 14 to 21 d
assayEndpoint: Plant response rating, Wheat, Winter
Answers are plain numbers.

Use these answered entries as a reference point.
1) CC(=O)Oc1c(C)nn(C)c(=O)c1-c1c(C)cc(C)c2ccccc12 ... 25
2) CCOC(=O)Oc1c(C)nn(C)c(=O)c1-c1c(C)sc2ccc(C)cc12 ... 0
3) Cc1cc(C)c2sc(C)c(-c3c(OC(=O)OCCCl)c(C)nn(C)c3=O)c2c1 ... 0
4) Cc1ccc2ccc(C)c(-c3c(O)c(C)nn(C)c3=O)c2c1 ... 35
5) CC(=O)Oc1c(C)nn(C)c(=O)c1-c1ccc(F)c2ccccc12 ... 40
6) CC(=O)Oc1c(C)nn(C)c(=O)c1-c1c(C)sc2ccc(C)cc12 ... 5
7) COc1nn(C)c(=O)c(-c2c(C)ccc3ccccc23)c1OC(=O)OC(C)C ... 5
8) COC(=O)Oc1c(C)nn(C)c(=O)c1-c1c(C)sc2c(C)cc(C)cc12 ... 5

Here's the next entry for you.
Measured on wheat, winter (winter wheat, Triticum aestivum), `CCOC(=O)Oc1c(C)nn(C)c(=O)c1-c1c(C)ccc2ccccc12` has a documented Plant response rating, Wheat, Winter of 65

###

Tested on: arrowleaf sida (Sida rhombifolia)
Experiment: Test E greenhouse herbicide test, pre- and postemergence
Type: in vivo
Conditions: 250 g ai/ha, Postemergence; scale 0 to 100 (0 no effect, 100 complete control)
I'd appreciate it if you could supply Plant response rating, Arrowleaf Sida values for the items below.
Give bare numbers.

Use these answered entries as a reference point.
1) CC(=O)Oc1c(C)nn(C)c(=O)c1-c1c(C)sc2ccc(C)cc12 ... 85
2) CCC(=O)Oc1c(C)nn(C)c(=O)c1-c1c(C)sc2c(C)cc(C)cc12 ... 60
3) CCOC(=O)Oc1c(C)nn(C)c(=O)c1-c1c(C)sc2ccc(C)cc12 ... 90
4) Cc1ccc2sc(C)c(-c3c(O)c(C)nn(C)c3=O)c2c1 ... 80

Here's the next entry for you.
The reported value for `CCC(=O)Oc1c(C)nn(C)c(=O)c1-c1c(C)sc2ccc(C)cc12` in terms of Plant response rating, Arrowleaf Sida is 80

###

I'd appreciate it if you could supply Plant response rating (scale of 0 to 100), Pigweed values for the items below.
Tested on: pigweed (Amaranthus retroflexus)
Assay: Test D controlled growth environment herbicide test, pre- and postemergence
Type: in vivo
Conditions: Preemergence, 31 g ai/ha
Excerpt: […]
Answers are plain numbers.

Use these answered entries as a reference point.
1. CC(=O)Oc1c(Br)nn(C)c(=O)c1-c1c(C)ccc2ccccc12 ... 100
2. Cc1cc(C)c2sc(C)c(-c3c(OC(=O)OC(C)C)c(C)nn(C)c3=O)c2c1 ... 35
3. CCOC(=O)Oc1c(C)nn(C)c(=O)c1-c1c(C)sc2ccc(C)cc12 ... 100
4. CCC(=O)Oc1c(C)nn(C)c(=O)c1-c1c(C)sc2ccc(Cl)cc12 ... 100
5. COc1nn(C)c(=O)c(-c2c(C)ccc3ccccc23)c1O ... 80

Here's the next entry for you.
The reported value for `Cc1ccc2ccc(C)c(-c3c(O)c(C)nn(C)c3=O)c2c1` in terms of Plant response rating (scale of 0 to 100), Pigweed is 100

###

System: crabgrass, large (large crabgrass, Digitaria sanguinalis)
Assay: Test C greenhouse herbicide test, pre- and postemergence
Type: in vivo
Settings: Preemergence, 125 g ai/ha; scale 0 to 100, 0 is no effect, 100 is complete control
Excerpt: […]
assayEndpoint: Plant response rating, Crabgrass, Large
Give bare numbers.

Use these answered entries as a reference point.
1. Cc1ccc2ccccc2c1-c1c(O)c(C)nn(C)c1=O ... 85
2. COc1nn(C)c(=O)c(-c2c(C)ccc3ccccc23)c1O ... 75
3. CCC(=O)Oc1c(C)nn(C)c(=O)c1-c1c(C)sc2c(C)cc(C)cc12 ... 80
4. Cc1ccc2sc(C)c(-c3c(O)c(C)nn(C)c3=O)c2c1 ... 80
5. CC(=O)Oc1c(C)nn(C)c(=O)c1-c1ccc(F)c2ccccc12 ... 75

// batch mode: one Plant response rating, Crabgrass, Large value per listed entry
1. Cc1nn(C)c(=O)c(-c2c(C)sc3ccc(Cl)cc23)c1O
2. COC(=O)Oc1c(C)nn(C)c(=O)c1-c1c(C)sc2c(C)cc(C)cc12
3. CCOC(=O)Oc1c(C)nn(C)c(=O)c1-c1c(CC)ccc2ccccc12
4. CC(=O)Oc1c(C)nn(C)c(=O)c1-c1c(C)sc2c(C)cc(C)cc12
5. CCC(=O)Oc1c(C)nn(C)c(=O)c1-c1c(C)sc2ccc(Cl)cc12

## Output
55
90
20
95
70

The reported value for `Cc1cc(C)c2sc(C)c(-c3c(OC(=O)OCCCl)c(C)nn(C)c3=O)c2c1` in terms of Plant response rating, Crabgrass, Large is 80

###

Tested on: ryegrass, Italian (Italian ryegrass, Lolium multiflorum)
Assay: Test C greenhouse herbicide test, pre- and postemergence
Type: in vivo
Conditions: Postemergence, 62 g ai/ha; 0 to 100 scale (0 no effect, 100 complete control)
I'd appreciate it if you could supply Ryegrass, Italian plant response rating values for the items below.

Use these answered entries as a reference point.
1. Cc1cc(C)c2ccccc2c1-c1c(OS(C)(=O)=O)c(C)nn(C)c1=O [Compound 154] ... 90
2. CCC(=O)Oc1c(C)nn(C)c(=O)c1-c1ccc(Br)c2ccccc12 [Compound 133] ... 10

// batch mode: one Ryegrass, Italian plant response rating value per listed entry
1. CC(=O)Oc1c(C)nn(C)c(=O)c1-c1c(C)cc(C)c2ccccc12 [Compound 153]
2. Cc1ccc2ccccc2c1-c1c(OC(=O)N2CCOCC2)c(Br)nn(C)c1=O [Compound 176]

## Output
1: 95; 2: 0

###

Tested on: Russian thistle (Salsola kali)
Assay: Test D controlled growth environment herbicide test, pre- and postemergence
Format: in vivo
Conditions: Preemergence, 125 g ai/ha; scale 0 to 100 (0 no effect, 100 complete control)
Description: […]
I'd appreciate it if you could supply Plant response rating, Russian Thistle values for the items below.
Give bare numbers.

Use these answered entries as a reference point.
1. CCC(=O)Oc1c(C)nn(C)c(=O)c1-c1c(C)sc2ccc(Cl)cc12 ... 35
2. Cc1ccc2ccccc2c1-c1c(O)c(C)nn(C)c1=O ... 80
3. COc1nn(C)c(=O)c(-c2c(C)ccc3ccccc23)c1O ... 25
4. CCOC(=O)Oc1c(C)nn(C)c(=O)c1-c1c(C)sc2c(C)cc(C)cc12 ... 15
5. COc1nn(C)c(=O)c(-c2c(C)ccc3ccccc23)c1OC(=O)OC(C)C ... 10
6. CCC(=O)Oc1c(C)nn(C)c(=O)c1-c1c(C)sc2ccc(C)cc12 ... 65
7. CCC(=O)Oc1c(C)nn(C)c(=O)c1-c1c(C)sc2c(C)cc(C)cc12 ... 15

The reported value for `COC(=O)Oc1c(C)nn(C)c(=O)c1-c1c(C)sc2c(C)cc(C)cc12` in terms of Plant response rating, Russian Thistle is 15
